The reported measurements were obtained from patent US9073916B2.

Assay: Plasma and A431 tumour pharmacokinetics of compounds 11 and 20
Conditions: NIHIII, mouse, A431 tumour, intraperitoneal, 75 umol/kg

{"compound": "CN(C)C/C=C/C(=O)Nc1ccc2ncnc(Nc3cccc(Br)c3)c2c1 [Compound 11, reference compound]", "half-life [h]": 9}

* * *

System: HT29 cells
Assay: Cellular growth inhibition (sulforhodamine B)
Type: cell-based, Human
Conditions: Homo sapiens, HT-29; Table 7; initial 4 hours anoxic; read-out: Cellular Growth Inhibition IC50 HT29 Anoxic

{"compound": "Cn1cnc([N+](=O)[O-])c1C[N+]1(CCOc2ccc(Nc3ncc4cc(-c5c(Cl)cccc5Cl)c(=O)n(C)c4n3)cc2)CCCCC1.[Br-] [Compound 143]", "testedTarget": "HT29 cells", "IC50": "1.5 µM"}
{"compound": "Cn1cnc([N+](=O)[O-])c1C[n+]1ccc(Nc2ncc3cc(-c4c(Cl)cccc4Cl)c(=O)n(C)c3n2)cc1.[Br-] [Compound 142]", "testedTarget": "HT29 cells", "IC50": "119 µM"}
